Tested on: SN12C renal
Assay: NCI-60 one-dose screen, 48 h (100 = growth as untreated, 0 = no growth, -100 = all killed)
Conditions: 10 µM unless noted
About 83,000 compounds went through this panel and 20% of them were active in at least one assay; those are over-represented in the sample as a whole. Activity calls are given as the source filed them. Rule for the calls: active = growth percent below 10; inactive = the rest.
measurement_label: growth

Some entries whose results are on file:
1. O=C(c1ccccc1)c1ccc(Cl)c([N+](=O)[O-])c1: 97% (inactive)
2. CN(C)CCCCNc1ccc(NCCCCN(C)C)c2c1C(=O)c1c(O)ccc(O)c1C2=O: 64.2% (inactive)
3. COc1ccc(C2CC(c3ccc4ccccc4c3)=NN2c2nc(O)c(C3=c4cc(Cl)ccc4=NC3=O)s2)cc1 (centres undefined): -30.5% (active)
4. C[C@H]1[C@H](C)CC[C@]2(C(=O)N3CCN(C)CC3)CC[C@]3(C)C(=CC[C@@H]4[C@@]5(C)C/C(=C/c6cccnc6)C(=O)C(C)(C)[C@@H]5CC[C@]43C)[C@H]12: -95.3% (active)
5. O=C1NN(C(=O)c2ccc(O)cc2)C(c2ccccc2)=N/C1=C\c1cn(-c2ccccc2)nc1-c1ccccc1: 89.2% (inactive)
6. O=C(Oc1ccc([N+](=O)[O-])cc1)c1ccc(CBr)cc1: 89.9% (inactive)
7. N#Cc1c(-c2ccc(C(F)(F)F)cc2)cc(N2CC(O)C2)n2c1nc1ccccc12: 72.3% (inactive)
8. CS(=O)(=O)c1ccc(N/N=C/c2c(-c3ccc(S(C)(=O)=O)cc3)[nH]c3ccc(F)cc23)cc1: 36.2% (inactive)

# ---- query molecule ----
Query: Return reported growth; argument: CCCCCCNCc1cc(C(C)(C)C)cc(CNCCCCCC)c1O
Result: -42.2% (active)

* * *

Tested on: HCC-2998 colon
Assay: NCI-60 one-dose screen, 48 h
Conditions: 10 µM unless noted
About 83,000 compounds went through this panel and 20% of them were active in at least one assay; those are over-represented in the sample as a whole. Activity calls are given as the source filed them. Rule for the calls: active = growth percent below 10; inactive = the rest.
// allowed return values: y = active, n = inactive

Illustrative cases are given below, each with its answer.
1) Clc1ccc(-c2nnc(-c3ccco3)o2)cc1: n
2) CCO/C=N/C1=C(C#N)C(c2ccc(OC)cc2)c2c(c3ccccc3n(C)c2=O)O1 (stereo not given): n
3) NC(=S)N/N=C/C(=O)O: n
4) N#Cc1c(NC(=O)c2ccccc2I)sc2c1CCCC2: n
5) C=C1c2c(C)nn(-c3ccc(NC(C)=O)cc3)c2N(C)C23CC1C1(C)c4c(C)nn(-c5ccc(NC(C)=O)cc5)c4N(C)C(C)(CC12)C3 (stereo not given): n

Query: What is the recorded call for this molecule in the test? Cc1c(C(=O)O)nnn1-c1nccs1
Result: n

Query: What is the recorded call for this molecule in the test? COc1ccc(OC)c(C(=O)Nc2cccc(-c3cc(=O)c4ccccc4o3)c2)c1
Result: n

Query: What is the recorded call for this molecule in the test? O=[N+]([O-])c1ccc2[nH]cc(-c3c4ccsc4cc4[nH]c5ccc([N+](=O)[O-])cc5c34)c2c1
Result: y

Query: What is the recorded call for this molecule in the test? O=C(NCc1cccnc1)c1cc(-c2csc3c(=O)cc(N4CCOCC4)oc23)cc2c1OCCO2
Result: n

Query: What is the recorded call for this molecule in the test? COc1cccc(-c2nc3sccn3c2-c2ccnc(NCCNS(=O)(=O)c3c(Cl)cccc3Cl)c2)c1
Result: n
